System: Jurkat FADD-/- TNF-alpha necroptosis, CellTiter-Glo ATP, 24 h
Test: inhibitors of TNF-alpha triggered necroptosis, potency, dose response, cell-based, Jurkat FADD-/-, duplicate IC50 (AID 463178)
Calls of active or inactive are those of the source.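 Rule for the calls: active = IC50 below a set limit in both duplicate runs and mean IC50 below a set limit; inconclusive = IC50 above a set limit in only one run; inactive = IC50 above a set limit in both runs and mean.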
Classes used: True (active), False (inactive)

{"compound": "O=C1NC(=Nc2ccccc2)SC1Cc1cccc(Cl)c1Cl (stereo unspecified)", "classAssignment": "False"}
{"compound": "COC(C(=O)Nc1cccc(F)c1)c1ccccc1 (stereo unspecified)", "classAssignment": "True"}
{"compound": "COc1ccc(-n2c(C)nn(CC3CC3)c2=O)cc1", "classAssignment": "True"}
{"compound": "O=C(C1=NNCC1c1ccccc1)C1CO1 (stereo unspecified)", "classAssignment": "True"}
{"compound": "O=C(C1COc2ccccc2O1)N1CCc2ccccc21 (stereo unspecified)", "classAssignment": "True"}
{"compound": "O=C(c1ccc([N+](=O)[O-])cc1)N1CCSC1c1ccccc1Cl (stereo unspecified)", "classAssignment": "False"}
